target: human PD-L1 (human) (UniProt Q9NZQ7); test: flow cytometry, CHO cells stably expressing PD-L1
Sequence (Q9NZQ7 19-290): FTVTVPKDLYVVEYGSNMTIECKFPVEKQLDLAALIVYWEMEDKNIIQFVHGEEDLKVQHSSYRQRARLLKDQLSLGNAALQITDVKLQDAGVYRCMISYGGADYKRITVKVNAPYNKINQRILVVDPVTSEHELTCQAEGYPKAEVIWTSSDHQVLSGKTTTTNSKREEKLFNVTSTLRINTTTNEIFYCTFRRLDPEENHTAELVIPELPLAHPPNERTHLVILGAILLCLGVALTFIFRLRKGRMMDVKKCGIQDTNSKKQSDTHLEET
Tick label 1 if MFI at 33.3 nM is 9000 MFI or greater. Tick label 0 if MFI at 33.3 nM is less than 9000 MFI.

Exercise: Assess whether reported MFI at 33.3 nM for variant CD80 IgV-Fc (inert) H18V/A26P/E35D/M47L/V68M/A71G (Fc fusion) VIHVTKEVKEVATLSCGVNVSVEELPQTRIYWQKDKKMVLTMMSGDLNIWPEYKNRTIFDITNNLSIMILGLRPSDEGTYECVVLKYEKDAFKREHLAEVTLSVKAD sits at 9000 MFI or higher.
Solution: label 1

Exercise: Assess whether reported MFI at 33.3 nM for variant CD80 IgV-Fc H18Y/E35D/A71G/D90G (Fc fusion) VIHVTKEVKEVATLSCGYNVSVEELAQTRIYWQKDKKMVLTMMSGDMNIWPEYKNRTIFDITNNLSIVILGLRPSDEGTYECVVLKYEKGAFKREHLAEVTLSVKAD sits at 9000 MFI or higher.
Solution: label 0

Exercise: Assess whether reported MFI at 33.3 nM for variant CD80 IgV-Fc E35D/M47L/A71G/D90G (Fc fusion) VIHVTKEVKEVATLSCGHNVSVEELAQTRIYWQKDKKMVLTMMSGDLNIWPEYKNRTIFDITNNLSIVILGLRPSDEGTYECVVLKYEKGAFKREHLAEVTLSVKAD sits at 9000 MFI or higher.
Solution: label 1

Exercise: Assess whether reported MFI at 33.3 nM for variant CD80 IgV-Fc E35D/M47L/V68M/D90G (Fc fusion) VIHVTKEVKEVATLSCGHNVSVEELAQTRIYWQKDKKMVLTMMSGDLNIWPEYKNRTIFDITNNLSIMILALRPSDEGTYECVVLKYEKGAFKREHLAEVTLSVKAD sits at 9000 MFI or higher.
Solution: label 1

Exercise: Assess whether reported MFI at 33.3 nM for CD80 ECD (SEQ ID NO:2)-Fc (inert) with GSG4S linker (Fc fusion) VIHVTKEVKEVATLSCGHNVSVEELAQTRIYWQKEKKMVLTMMSGDMNIWPEYKNRTIFDITNNLSIVILALRPSDEGTYECVVLKYEKDAFKREHLAEVTLSVKADFPTPSISDFEIPTSNIRRIICSTSGGFPEPHLSWLENGEELNAINTTVSQDPETELYAVSSKLDFNMTTNHSFMCLIKYGHLRVNQTFNWNTTKQEHFPDNGSGGGGS sits at 9000 MFI or higher.
Solution: label 0

Exercise: Assess whether reported MFI at 33.3 nM for variant CD80 IgV-Fc (inert) H18Y/A26P/E35D/M47V/V68M/A71G (Fc fusion) VIHVTKEVKEVATLSCGYNVSVEELPQTRIYWQKDKKMVLTMMSGDVNIWPEYKNRTIFDITNNLSIMILGLRPSDEGTYECVVLKYEKDAFKREHLAEVTLSVKAD sits at 9000 MFI or higher.
Solution: label 1

Exercise: Assess whether reported MFI at 33.3 nM for variant CD80 IgV-Fc (inert) H18Y/A26P/E35D/M47Y/V68I/A71G/D90G (Fc fusion) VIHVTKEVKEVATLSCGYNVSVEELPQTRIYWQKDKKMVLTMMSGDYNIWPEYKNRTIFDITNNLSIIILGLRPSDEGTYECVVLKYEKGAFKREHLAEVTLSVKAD sits at 9000 MFI or higher.
Solution: label 1

Exercise: Assess whether reported MFI at 33.3 nM for variant CD80 IgV-Fc A26E/V68M/A71G/D90G (Fc fusion) VIHVTKEVKEVATLSCGHNVSVEELEQTRIYWQKEKKMVLTMMSGDMNIWPEYKNRTIFDITNNLSIMILGLRPSDEGTYECVVLKYEKGAFKREHLAEVTLSVKAD sits at 9000 MFI or higher.
Solution: label 0
